tested on: Candida parapsilosis; experiment: Antifungal activity against Candida parapsilosis by broth microdilution method; assay type: functional; settings: Lodderomyces parapsilosis
ASSAY ENDPOINT: MIC (µg/mL)

Example entries begin here.
COMPOUND	STUDY SYSTEM	MIC [µg/mL]
O=C(O)C(OC(Cn1ccnc1)c1ccc(Cl)cc1Cl)c1ccccc1Cl (stereo not given)	Candida parapsilosis	1
CCC(C)n1ncn(-c2ccc(N3CCN(c4ccc(OCC5COC(Cn6cncn6)(c6ccc(Cl)cc6Cl)O5)cc4)CC3)cc2)c1=O (stereo not given)	Candida parapsilosis	0.25

A: COC(=O)c1ccc(COC(Cn2ccnc2)c2ccc(Cl)cc2Cl)cc1 (stereo not given)
B: OCc1ccc(COC(Cn2ccnc2)c2ccc(Cl)cc2Cl)cc1 (stereo not given)
C: COc1ccc(CCOC(Cn2ccnc2)c2ccc(Cl)cc2Cl)cc1OC (stereo not given)
Exercise: Please order the records by their reported MIC, lowest number first. Put the labels in the requested order and write them down.
Key: A, B, C

====

test system: Cyberlindnera jadinii; test: Antifungal activity against Candida utilis ATCC 9226 by broth microdilution method; assay type: functional; details: Williopsis jadinii
ASSAY ENDPOINT: MIC (µg/mL)

Example entries begin here.
MOLECULE	UNIT ABBREVIATION	RECORDED VALUE
COC(=O)c1ccc(COC(Cn2ccnc2)c2ccc(Cl)cc2Cl)cc1 (stereo not given)	µg/mL	0.25
OCc1ccc(COC(Cn2ccnc2)c2ccc(Cl)cc2Cl)cc1 (stereo not given)	µg/mL	0.5
CCC(C)n1ncn(-c2ccc(N3CCN(c4ccc(OCC5COC(Cn6cncn6)(c6ccc(Cl)cc6Cl)O5)cc4)CC3)cc2)c1=O (stereo not given)	µg/mL	0.5

P: O=C(O)C(OC(Cn1ccnc1)c1ccc(Cl)cc1Cl)c1ccccc1Cl (stereo not given)
Q: COc1ccc(CCOC(Cn2ccnc2)c2ccc(Cl)cc2Cl)cc1OC (stereo not given)
Exercise: Please tell me which of the two, P or Q , has the higher reported MIC value. Mark your answer with the label of the selected entry.
Key: Q

====

system: Candida albicans; assay: Antifungal activity against Candida albicans Strain 27 by broth microdilution method; format: functional
ASSAY ENDPOINT: MIC (µg/mL)

Example entries begin here.
COMPOUND	ASSAY ENDPOINT	UNIT ABBREVIATION	RECORDED VALUE
COc1ccc(CCOC(Cn2ccnc2)c2ccc(Cl)cc2Cl)cc1OC (stereo not given)	MIC	µg/mL	0.25
CCC(C)n1ncn(-c2ccc(N3CCN(c4ccc(OCC5COC(Cn6cncn6)(c6ccc(Cl)cc6Cl)O5)cc4)CC3)cc2)c1=O (stereo not given)	MIC	µg/mL	0.06
COC(=O)c1ccc(COC(Cn2ccnc2)c2ccc(Cl)cc2Cl)cc1 (stereo not given)	MIC	µg/mL	0.06

P: OCc1ccc(COC(Cn2ccnc2)c2ccc(Cl)cc2Cl)cc1 (stereo not given)
Q: O=C(O)C(OC(Cn1ccnc1)c1ccc(Cl)cc1Cl)c1ccccc1Cl (stereo not given)
Exercise: Please let me know which one, P or Q , has a lower measured MIC value. Mark your answer with the label of the selected entry.
Key: P

====

system: Candida albicans; test: Antifungal activity against Candida albicans Strain 25 by broth microdilution method; assay type: functional
ASSAY ENDPOINT: MIC (µg/mL)

Example entries begin here.
COMPOUND	UNIT ABBREVIATION	RECORDED VALUE
CCC(C)n1ncn(-c2ccc(N3CCN(c4ccc(OCC5COC(Cn6cncn6)(c6ccc(Cl)cc6Cl)O5)cc4)CC3)cc2)c1=O (stereo not given) [ITRACONAZOLE]	µg/mL	0.12
OCc1ccc(COC(Cn2ccnc2)c2ccc(Cl)cc2Cl)cc1 (stereo not given)	µg/mL	0.12

a: COC(=O)c1ccc(COC(Cn2ccnc2)c2ccc(Cl)cc2Cl)cc1 (stereo not given)
b: O=C(O)C(OC(Cn1ccnc1)c1ccc(Cl)cc1Cl)c1ccccc1Cl (stereo not given)
Exercise: Please tell me which of the two, a or b , has the higher reported MIC value. Mark your answer with the label of the selected entry.
Key: b
(b: 0.25 µg/mL, a: 0.12 µg/mL)
